# Tested on: CAF#5 (primary prostate cancer-associated fibroblasts of myCAF-like type)
# ASSAY_METHOD_TEXT: drug sensitivity score (DSS2, normalised partial AUC of dose-response, 72 h CellTiter-Glo viability) (DSS (dimensionless)); higher = more sensitive (stronger growth inhibition / cytotoxicity); extreme values may be limits of the assay
Recorded drug sensitivity score for the following compounds
The response must contain the number and no unit.

CNS(=O)(=O)Nc1nccc(Cc2c(C)c3ccc(Oc4ncccn4)cc3oc2=O)c1F (tested concentration range 0.1-1000 nM); 0

[Q] Record Cc1ccc(C(=O)N(CCCN)[C@@H](c2oc3cc(Cl)ccc3c(=O)c2Cc2ccccc2)C(C)C)cc1 (tested concentration range 0-100 nM) : what is its drug sensitivity score with CAF#5?
[A] 4.3

[Q] Record CCN(CC)C(=S)SSC(=S)N(CC)CC [Disulfiram] (tested concentration range 5-50000 nM) : what is its drug sensitivity score with CAF#5?
[A] 6.6

[Q] Record O=C1CN2Cc3c(ccc(Cl)c3Cl)N=C2N1 [Anagrelide] (tested concentration range 1-10000 nM) : what is its drug sensitivity score with CAF#5?
[A] 0.6
